Listed here are compounds together with their documented inhibition at 1 µM.
Target: JAK2 (Homo sapiens, UniProt O60674)
Construct: purchased Invitrogen
Sequence (O60674 whole entry): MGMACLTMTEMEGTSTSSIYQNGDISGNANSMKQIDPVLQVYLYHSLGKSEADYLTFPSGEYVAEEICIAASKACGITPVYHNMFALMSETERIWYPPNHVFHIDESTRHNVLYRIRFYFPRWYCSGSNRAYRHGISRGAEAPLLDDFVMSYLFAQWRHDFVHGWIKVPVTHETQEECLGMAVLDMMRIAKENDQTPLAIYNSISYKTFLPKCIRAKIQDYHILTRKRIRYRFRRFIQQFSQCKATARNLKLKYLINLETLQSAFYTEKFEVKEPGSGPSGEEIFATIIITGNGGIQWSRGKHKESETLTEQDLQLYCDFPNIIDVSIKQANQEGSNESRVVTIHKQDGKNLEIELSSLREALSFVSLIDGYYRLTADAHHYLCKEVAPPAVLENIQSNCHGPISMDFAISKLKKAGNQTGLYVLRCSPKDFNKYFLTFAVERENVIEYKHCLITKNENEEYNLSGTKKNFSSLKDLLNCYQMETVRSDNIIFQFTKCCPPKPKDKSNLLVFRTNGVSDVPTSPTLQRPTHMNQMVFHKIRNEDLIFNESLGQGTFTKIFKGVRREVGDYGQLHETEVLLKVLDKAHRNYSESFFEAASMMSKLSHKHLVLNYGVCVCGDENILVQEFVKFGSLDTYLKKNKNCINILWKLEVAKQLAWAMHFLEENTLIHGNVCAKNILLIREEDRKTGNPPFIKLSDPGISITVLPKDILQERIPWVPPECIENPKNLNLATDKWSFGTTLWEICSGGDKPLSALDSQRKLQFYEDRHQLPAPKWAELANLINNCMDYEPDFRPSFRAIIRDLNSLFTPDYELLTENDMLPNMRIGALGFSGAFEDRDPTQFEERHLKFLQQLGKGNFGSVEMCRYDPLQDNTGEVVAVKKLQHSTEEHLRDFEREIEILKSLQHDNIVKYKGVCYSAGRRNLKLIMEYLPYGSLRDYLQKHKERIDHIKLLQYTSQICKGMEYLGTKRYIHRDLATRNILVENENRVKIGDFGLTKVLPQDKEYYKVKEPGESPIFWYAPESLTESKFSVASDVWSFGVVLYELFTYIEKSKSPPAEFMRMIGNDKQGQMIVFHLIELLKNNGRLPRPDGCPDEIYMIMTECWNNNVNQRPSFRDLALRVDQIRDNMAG
Assay: JAK2 enzyme inhibition test (LANCE method)
Type: biochemical
Settings: 1 μM test compound; read-out: JAK2 enzyme inhibitory activity (%, 1 μM)
# number only, unit % dropped from output

// worked examples, inhibition at 1 µM included
compound=CC(C)[C@H](C)n1cc(-c2cc(N3CCC(C)(O)CC3)n(C)n2)c2[nH]nc(N)c2c1=O test_result=98
compound=CC(C)[C@H](C)n1cc(-c2cc(C(C)(C)CO)n(C)n2)c2[nH]nc(N)c2c1=O test_result=99

# query: inhibition at 1 µM of entry CC(C)[C@H](C)n1cc(-c2cc(N3CCCC3=O)n(C)n2)c2[nH]nc(N)c2c1=O 98

Name the reported inhibition at 1 µM value associated with the compound Cn1nc(-c2cn(C3CCCC3(C)C)c(=O)c3c(N)n[nH]c23)cc1N1CCOCC1 (centres unmarked) [Example 76] 99

// lookup inhibition at 1 µM for CC(C)[C@H](C)n1cc(-c2cc(N3CC4(COC4)C3)n(C)n2)c2[nH]nc(N)c2c1=O 99

Fill in the blank: the reported inhibition at 1 µM of CN(C)[C@H]1CCN(c2cc(-c3cn(C(C4CC4)C4CC4)c(=O)c4c(N)n[nH]c34)nn2C)C1 is ____. 100

# inhibition at 1 µM lookup, item Cn1nc(-c2cn(C(C3CC3)C3CC3)c(=O)c3c(N)n[nH]c23)cc1C(C)(C)O 98

Requested read-out: inhibition at 1 µM. Entry: CC1CCCCC1n1cc(-c2cc(N3CCOCC3)n(C)n2)c2[nH]nc(N)c2c1=O (racemic) [Example 146] 99
